Test system: LOX IMVI
Assay: NCI tumour cell line growth inhibition, 48 h
Activity calls are given as the source filed them. Cut-off read from the data, not from the text of the source: active = GI50 up to about 1.1 µM and inactive = higher.
Could you please pick one outcome from this set? YES for active, NO for inactive

Would you please look over these solved cases?
O=C(N[C@@H](Cc1ccccc1)B(O)O)[C@H](Cc1cccc2ccccc12)NC(=O)N1CCOCC1: YES
CCCCCCCCCCCCCCCCCC(=O)OCC(COC1OC(COP(=O)(O)O)C(O)C(O)C1O)OC(=O)CCCCCCCCCCCCCCCCC (stereo not given): NO
COc1cc(C2c3cc4c(cc3OC(N3CCCC3)C2C)OCO4)cc(OC)c1O (stereo not given): NO
COc1ccc(-c2cc(O)c3cccnc3n2)cc1: NO

input: Which result was noted for this compound in the test: `O=[N+]([O-])c1ccc2c(c1)=[N+]([O-])C1(CCCCC1)[N+]=2[O-]`
output: NO

====

Tested on: EKVX
Assay: NCI tumour cell line growth inhibition, 48 h
Activity calls are given as the source filed them. Rule as the data show it: active = GI50 up to about 1.1 µM and inactive = higher.
Endpoint label: GI50

Worked cases, GI50 given:
NC(=O)NO [HYDROXYUREA]: 1790 µM (inactive)
COc1ccc2c(=O)c(-c3cc4c(cc3OC)OCO4)coc2c1: > 100 µM (inactive)
Cc1cc2ncn(C3CCCO3)c2cc1C (stereo not drawn): > 100 µM (inactive)

input: Note down GI50 recorded for `CN(C)c1ccc(C(=C2C=CC(=[N+](C)C)C=C2)c2ccc(N(C)C)cc2)cc1`
output: 0.368 µM (active)

input: Determine from records and report GI50 for `C=CCN1C(=O)NC(=O)/C(=C/c2c3ccccc3cc3ccccc23)C1=O`
output: 25.5 µM (inactive)

input: For the compound `Cn1cc2ccccc2c1-c1nc(F)nc(Nc2ccc(N)cc2)n1` , give its measured GI50 value.
output: 23.3 µM (inactive)

input: Please supply the value of reported GI50 for the item COc1ccc(C(Nc2ncccn2)c2cc3c(cc2O)OCO3)cc1 (stereo not drawn)
output: 22.9 µM (inactive)

input: Query GI50 for `COc1cc2cnc(-c3ccccc3)cc2cc1OC`
output: 3.22 µM (inactive)

input: Name the recorded GI50 of the compound listed here: COC1OC(CO)C(O)C(OC(=O)c2cc(O)c(O)c(O)c2)C1OC(=O)c1cc(O)c(O)c(O)c1 (stereo not drawn)
output: > 100 µM (inactive)

input: Using the record for COC1=CCC2=C(CCN(C(=O)C3CCC3)C2Cc2ccc(OC)c(O)c2)C1 (stereo not drawn) , state its measured GI50.
output: 25.7 µM (inactive)

input: Could you please provide reported GI50 for `NC(=O)c1ncn(Cc2ccccc2)c1CNC(N)=S` ? Thanks!
output: > 100 µM (inactive)

input: Dear colleague, please send me the reported GI50 for `CCOc1cc2c(c(OCC)c1O)CC[C@@H]1[C@@H]2CC[C@]2(C)[C@@H](O)CC[C@@H]12` when you can.
output: 6.1 µM (inactive)

input: Tell me measured GI50 for CCCCCCCCCCCCCCCCCC(=O)OCC(COC1OC(COP(=O)(O)O)C(O)C(O)C1O)OC(=O)CCCCCCCCCCCCCCCCC (stereo not drawn) please.
output: 7.74 µM (inactive)

input: For the compound `CC(=O)Oc1c(C)c2c(c3ccccc13)OC(C)(C)C2` , give its reported GI50.
output: 19.8 µM (inactive)

input: Tell me measured GI50 for Cc1cc(Br)cc(C)c1NC(=O)C(=O)C1C(=O)C(CC2C(=O)c3ccccc3C2=O)C(=O)CC1(C)C (stereo not drawn) please.
output: 50.8 µM (inactive)

input: Answer with the recorded GI50 for the compound listed here: `COc1ccc2c(c1)/C(=C\c1c(Cl)nc3n1CCS3)C(=O)N2`
output: 18.3 µM (inactive)

input: Assign GI50 to the following record: `CC(C)(C)C(C#N)(C#N)c1ccc(C(C#N)(C#N)C(C)(C)C)nn1`
output: > 100 µM (inactive)

input: Report GI50 for `Cc1ccc(/C=N/Nc2ncccn2)s1`
output: > 100 µM (inactive)

Origin of measurements: ChEMBL document CHEMBL1201862
